# % Inucl'n; nucleation assay; 100 mole % per entry
- MEASUREMENT TARGET: natural β-amyloid peptide β-AP1-40 (human)
- Sequence (peptide, as listed by the source): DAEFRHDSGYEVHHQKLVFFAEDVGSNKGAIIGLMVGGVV
- MEASUREMENT PROTOCOL: cell-based or functional assay
Numbered stars: 1 amine (or outer) side, 2 acyl side, 3 side chain; on linkers, the order of the positions; unused ones are H or OH. Square brackets hold non-standard residues; d marks the D form. * marks the point of attachment. Cholyl = C[C@H](CCC(=O)*)[C@H]1CC[C@H]2[C@@H]3[C@H](O)C[C@@H]4C[C@H](O)CC[C@]4(C)[C@H]3C[C@H](O)[C@]12C; Adp = aminoethyldibenzofuranylpropanoic acid, O=C(CCc1cccc2c1oc1c(CCN[*:1])cccc12)[*:2]
Express the result in % but write the number alone.

// below: answered binders
Cholyl-AVFFA-OH (SMILES CC(C)[C@H](NC(=O)[C@H](C)NC(=O)CC[C@@H](C)[C@H]1CC[C@H]2[C@@H]3[C@H](O)C[C@@H]4C[C@H](O)CC[C@]4(C)[C@H]3C[C@H](O)[C@]12C)C(=O)N[C@@H](Cc1ccccc1)C(=O)N[C@@H](Cc1ccccc1)C(=O)N[C@@H](C)C(=O)O) [CA-AVFFA-oh]; 68
Cholyl-Phe-Phe-Val-OH (SMILES CC(C)[C@H](NC(=O)[C@H](Cc1ccccc1)NC(=O)[C@H](Cc1ccccc1)NC(=O)CC[C@@H](C)[C@H]1CC[C@H]2[C@@H]3[C@H](O)C[C@@H]4C[C@H](O)CC[C@]4(C)[C@H]3C[C@H](O)[C@]12C)C(=O)O) [CA-FFV-oh]; -33
Cholyl-FKFVL-OH (SMILES CC(C)C[C@H](NC(=O)[C@@H](NC(=O)[C@H](Cc1ccccc1)NC(=O)[C@H](CCCCN)NC(=O)[C@H](Cc1ccccc1)NC(=O)CC[C@@H](C)[C@H]1CC[C@H]2[C@@H]3[C@H](O)C[C@@H]4C[C@H](O)CC[C@]4(C)[C@H]3C[C@H](O)[C@]12C)C(C)C)C(=O)O) [CA-FKFVL-oh]; 45

Return the recorded % Inucl'n; nucleation assay; 100 mole % value; entry: Cholyl-LVAFA-OH (SMILES CC(C)C[C@H](NC(=O)CC[C@@H](C)[C@H]1CC[C@H]2[C@@H]3[C@H](O)C[C@@H]4C[C@H](O)CC[C@]4(C)[C@H]3C[C@H](O)[C@]12C)C(=O)N[C@H](C(=O)N[C@@H](C)C(=O)N[C@@H](Cc1ccccc1)C(=O)N[C@@H](C)C(=O)O)C(C)C) [CA-LVAFA-oh]
25

Return the recorded % Inucl'n; nucleation assay; 100 mole % value; entry: Cholyl-Gly-Phe-Phe-OH (SMILES C[C@H](CCC(=O)NCC(=O)N[C@@H](Cc1ccccc1)C(=O)N[C@@H](Cc1ccccc1)C(=O)O)[C@H]1CC[C@H]2[C@@H]3[C@H](O)C[C@@H]4C[C@H](O)CC[C@]4(C)[C@H]3C[C@H](O)[C@]12C) [CA-GFF-oh]
0

Return the recorded % Inucl'n; nucleation assay; 100 mole % value; entry: H-DDIIL[Adp]VFF-OH (SMILES CC[C@H](C)[C@H](NC(=O)[C@H](CC(=O)O)NC(=O)[C@@H](N)CC(=O)O)C(=O)N[C@H](C(=O)N[C@@H](CC(C)C)C(=O)NCCc1cccc2c1oc1c(CCC(=O)N[C@H](C(=O)N[C@@H](Cc3ccccc3)C(=O)N[C@@H](Cc3ccccc3)C(=O)O)C(C)C)cccc12)[C@@H](C)CC) [h-DDIIL-(Adp)-VFF-oh]
14
